Value source: ChEMBL document CHEMBL1129629

Molecular target: Vasopressin V1a receptor (Rattus norvegicus)
Sequence (P30560 whole entry): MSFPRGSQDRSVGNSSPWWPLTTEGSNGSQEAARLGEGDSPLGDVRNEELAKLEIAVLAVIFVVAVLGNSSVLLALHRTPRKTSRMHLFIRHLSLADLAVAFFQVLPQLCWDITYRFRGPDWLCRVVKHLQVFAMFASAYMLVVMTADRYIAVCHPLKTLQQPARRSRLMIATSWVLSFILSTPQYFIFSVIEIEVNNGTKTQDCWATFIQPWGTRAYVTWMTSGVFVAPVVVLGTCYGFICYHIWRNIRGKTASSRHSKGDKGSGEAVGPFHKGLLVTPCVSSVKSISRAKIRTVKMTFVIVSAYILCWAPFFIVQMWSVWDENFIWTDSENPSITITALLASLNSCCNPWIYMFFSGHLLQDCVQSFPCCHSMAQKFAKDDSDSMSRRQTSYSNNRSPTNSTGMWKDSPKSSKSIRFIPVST
Assay: Displacement of [3H]AVP from AVP-V1a receptor binding site in rat liver
pIC50: −log10 of the molar value.
OBSERVABLE: pIC50

Some molecules with recorded pIC50:
Task item: Retrieve pIC50 measured for Cc1ccc(C(=O)Nc2ccc(C(=O)N3CCCC(N(C)C)c4ccccc43)cc2)cc1 (stereo not given) and print it.
Reply: 4.59

Task item: Provide measured pIC50 value, entry: O=C(Nc1ccccc1)Nc1ccc(C(=O)N2CCCCc3ccccc32)cc1
Reply: 6.12

(a) CCOc1ccc(C(=O)Nc2ccc(C(=O)N3CCCc4ccccc43)cc2)cc1
(b) O=C(Nc1ccc(C(=O)N2CCCc3ccccc32)cc1)c1ccccc1[N+](=O)[O-]
(c) O=C(Nc1ccc(C(=O)N2CCCc3ccccc32)cc1)c1ccccc1
(d) O=C(Nc1ccccc1C(=O)N1CCCc2ccccc21)c1ccccc1
(e) CCCNC1CCCN(C(=O)c2ccc(NC(=O)c3ccccc3C)cc2)c2ccccc21 (stereo not given)
Task item: Order the 5 molecules from highest to lowest pIC50. I'd appreciate it if you listed the labels in the requested order.
Reply: e, c, b, a, d
(e: 6.05, c: 5.80, b: 5.57, a: 4.85, d: 4.06)

(A) CNC(=O)NC1CCCN(C(=O)c2ccc(NC(=O)c3ccccc3C)cc2)c2ccccc21 (stereo not given)
(B) O=C(Nc1ccc(C(=O)N2CCCc3ccccc32)cc1)c1cccc([N+](=O)[O-])c1
(C) Cc1ccccc1C(=O)Nc1ccc(C(=O)N2CCCOc3ccccc32)cc1
Task item: Sort low-to-high on pIC50, please. Use the labels to give the ranking in the order requested.
Reply: B, A, C
(B: 4.80, A: 5.55, C: 5.92)

(a) COc1ccc(C(=O)Nc2ccc(C(=O)N3CCCc4ccccc43)cc2)cc1
(b) O=C(Nc1ccc(C(=O)N2CCCc3ccccc32)cc1)c1cc(Cl)cc(Cl)c1
(c) Cc1ccccc1C(=O)Nc1ccc(C(=O)N2CCCC(N)c3ccccc32)cc1 (stereo not given)
(d) O=C(Nc1ccc(C(=O)N2CCCc3ccccc32)cc1)c1ccco1
Task item: Order the 4 molecules from highest to lowest pIC50. List labels; respect the requested ordering.
Reply: c, a, d, b

(I) CC(C)C(=O)Nc1ccc(C(=O)N2CCCc3ccccc32)cc1
(II) O=C(Nc1ccc(C(=O)N2CCCc3ccccc32)cc1)c1cccc(Cl)c1
(III) Cc1ccccc1C(=O)Nc1ccc(C(=O)N2CCCc3ccccc32)cc1
(IV) CC(=O)Nc1ccccc1C(=O)Nc1ccc(C(=O)N2CCCC(N(C)C)c3ccccc32)cc1 (stereo not given)
(V) Cc1ccccc1C(=O)Nc1ccc(C(=O)N2CCOCc3ccccc32)cc1
Task item: Rank descending by pIC50. Give the labels in the order specified.
Reply: V, III, I, II, IV
(V: 6.20, III: 5.85, I: 5.62, II: 5.19, IV: 4.80)

(A) Cc1ccccc1C(=O)Nc1ccc(C(=O)N2CCOc3ccccc32)cc1
(B) COc1ccccc1C(=O)Nc1ccc(C(=O)N2CCCc3ccccc32)cc1
(C) CN(C)C1CCCN(C(=O)c2ccc(NC(=O)c3ccccc3)cc2)c2ccccc21 (stereo not given)
(D) CCOC(=O)CN(C)C1CCCN(C(=O)c2ccc(NC(=O)c3ccccc3C)cc2)c2ccccc21 (stereo not given)
Task item: # rank by pIC50, ascending (min first) A ranking is expressed here by listing the labels in the requested order.
Reply: A, C, B, D
(A: 5.11, C: 5.52, B: 5.72, D: 6.01)

(1) CN(C)C1CCCN(C(=O)c2ccc(NC(=O)c3cc(Cl)cc(Cl)c3)cc2)c2ccccc21 (stereo not given)
(2) O=C(Nc1ccc(C(=O)N2CCCc3ccccc32)cc1)c1ccccc1Cl
Task item: Compare pIC50: is it lower for 1 or for 2 ? Respond with the label that goes with your answer.
Reply: 1
(1: 5.59, 2: 5.80)

(I) COc1cccc(C(=O)Nc2ccc(C(=O)N3CCCc4ccccc43)cc2)c1
(II) O=C(Nc1ccc(C(=O)N2CCCc3ccccc32)cc1)c1cccnc1
Task item: For the pair I and II , which entry has the numerically smaller recorded pIC50? Answer by quoting the chosen item's label.
Reply: II
(II: 4.96, I: 5.55)

(A) CCNC1CCCN(C(=O)c2ccc(NC(=O)c3ccccc3C)cc2)c2ccccc21 (stereo not given)
(B) O=C(c1ccc(NS(=O)(=O)c2ccccc2)cc1)N1CCCCc2ccccc21
(C) Cc1ccccc1C(=O)N(C)c1ccc(C(=O)N2CCCC(N(C)C)c3ccccc32)cc1 (stereo not given)
(D) COc1ccccc1C(=O)Nc1ccc(C(=O)N2CCCC(N(C)C)c3ccccc32)cc1 (stereo not given)
Task item: List the 4 entries from lowest pIC50 to highest pIC50 value. Please list the labels according to the requested order.
Reply: C, B, A, D
